methodSummary: soluble on expression in E. coli; label from the status in PepcDB or PDB records

>  <primarySequence>
MSFFPGNDPVAGDAFACDAIENLIIPRTSDIGGFAVRRALPTRQRRLVGPFIFFDRMGPAILKAGEALDVKPHPHIGLSTVTYLFDGEIKHRDSLGTELVIRPGDINLMTAGRGIVHSERTPENLRGHPLSMSGLQTWLALPDHMEEIAPAFAHTAKEDMPLIDIKGASGRVVIGEFEGLTSPVSAFTDTLYVDLSLEPGVKFPFSADHEERAIYILSGSLDVAGDIFAADQLLVFRPGDDITLQAGSNGCHIMIFGGAALNQRRYIWWNFVSSSKERIEQAKQEWRTGRFDIVPGDEEEFVPLPEG

>  <soluble on expression in E. coli>
not soluble

$$$$
>  <primarySequence>
MGSDKIHHHHHHRVAQCCAIIDRSKIVIGFSDHGLYCIEISRQLLIPVGGEKENKQRCVETVEYDEAEQLLMMIVGPAKDRHVRIVPSAALDGRDLKWIKVNDTKGCHLLAVGTNNPGGRAGFFAVAFKKSVTIFQIDRSEKRHKKWKDLAMPGTPQSIAIFNGRLYVGFSHSFRSWSLVGVDSSPVGSGDASGAVLQHISLVNMEDTSLQFLNQQTSYEAKLIVNVPGSPDEYLLVFNMIGLYVNEMGRRSRLPEVMFPTQAKYFAYHEPYLCVFSENEVDIFNVTLAEWVQTINLRSAKPLSGDGILSTCLCNDSPIFVLLQN

>  <soluble on expression in E. coli>
not soluble

$$$$
>  <primarySequence>
MELKARAVGVEIIPKGKIIYYSVPNGDEYERGDLVLVLGDFGLEVGKVLIPPREVVIDEVGYELKAVIRKLTDEDLEQYRKNVEDALKAFQICKQKIKEHGLPMKLLYAKYTFDRTRLIFFFSAEGRVDFRELVRDLAKIFKTRIELRQVGVRDEMKFFGGLGLCGLPTCCSTFLREFTSVTLKHAKKQQMMINPAKISGPCRRLLCCLTYEYDFYEKELEGIPDEGSTITYEGKRYKVVNVNVFLRTVTLFSEQEGEMIKLPFDYFRKGE

>  <soluble on expression in E. coli>
soluble

$$$$
>  <primarySequence>
MYSRADRLLRQFSLKLNTDSIVFDENRLCSFIIDNRYRILLTSTNSEYIMIYGFCGKPPDNNNLAFEFLNANLWFAENNGPHLCYDNNSQSLLLALNFSLNESSVEKLECEIEVVIRSMENLYHILQDKGITLDTDYTHHHHHH

>  <soluble on expression in E. coli>
soluble

$$$$
>  <primarySequence>
GMRGLIVDYAGVLDGTDEDQRRWRNLLAAAKKNGVGTVILSNDPGGLGAAPIRELETNGVVDKVLLSGELGVEKPEEAAFQAAADAIDLPMRDCVLVDDSILNVRGAVEAGLVGVYYQQFDRAVVEIVGLFGLEGEF

>  <soluble on expression in E. coli>
soluble

$$$$
>  <primarySequence>
MRIPLVGKDSIESKDIGFTLIHEHLRVFSEAVRQQWPHLYNEDEEFRNAVNEVKRAMQFGVKTIVDPTVMGLGRDIRFMEKVVKATGINLVAGTGIYIYIDLPFYFLNRSIDEIADLFIHDIKEGIQGTLNKAGFVKIAADEPGITKDVEKVIRAAAIANKETKVPIITHSNAHNNTGLEQQRILTEEGVDPGKILIGHLGDTDNIDYIKKIADKGSFIGLDRYGLDLFLPVDKRNETTLRLIKDGYSDKIMISHDYCCTIDWGTAKPEYKPKLAPRWSITLIFEDTIPFLKRNGVNEEVIATIFKENPKKFFS

>  <soluble on expression in E. coli>
soluble

$$$$
>  <primarySequence>
MRKEGYKSGFVAIIGRPNVGKSTFLNRVIGQKIAIMSDKPQTTRNKIQGVYTDDDAQIIFIDTPGVHKPKHKLGDFMMKVALNALREVDLILFMVNAEEGFGRGEAFIIERLKEVDTPVFLVINKIDRVHPDELLPLIDRYKDLYPFAEIVPISALEGNNVDRLLEQIKERLPEGPQYYPPDQITDHPEQFIIAELIREKALHLTREEVPHSIAVVVERIERREGSPTVYISAVIVVERDSQKGIIIGKQGRMLKEIGQRARADIEALLGSRVFLELWVKVQKDWRNRLSQLRDFGFREDEY

>  <soluble on expression in E. coli>
soluble

$$$$
>  <primarySequence>
MGAGASAEEKHSRELEKKLKEDAEKDARTVKLLLLGAGESGKSTIVKQMKIIHQDGYSLEECLEFIAIIYGNTLQSILAIVRAMTTLNIQYGDSARQDDARKLMHMADTIEEGTMPKEMSDIIQRLWKDSGIQACFDRASEYQLNDSAGYYLSDLERLVTPGYVPTEQDVLRSRVKTTGIIETQFSFKDLNFRMFDVGGQRSERKKWIHCFEGVTAIIFCVALSDYDLVLAEDEEMNRMHESMKLFDSICNNKWFTDTSIILFLNKKDLFEEKIKKSPLTICYPEYAGSNTYEEAGNYIKVQFLELNMRRDVKEIYSHMTCATDTQNVKFVFDAVTDIIIKENLKDCGLF

>  <soluble on expression in E. coli>
soluble

$$$$
>  <primarySequence>
MGHHHHHHSHMDWNKTYAAIYRARKDYLKPIFEIDPIALKDLVGMESQKKALYENTLNFIQDKGANHALLWGSKGTGKSSLIKAIFNEFKEQGLRLVELNKEDLFALADIIDEIRLENFKFILFCDDFSFEKGDDSYKFLKPLLEGSIEKAPNNVIIYASSNRRHLLSESITDNLDTQITHTELHLSDAAEERLSLSDRFG

>  <soluble on expression in E. coli>
soluble

$$$$
>  <primarySequence>
MSLDIARIAVHESVAKACPLEAMVAALQGPDVRVETVGDDASFDASDCVVTFSPREAFLDAAWVHGIRAGYDEFDVDAYEAAGTVLTNSTGIHGDTVPETVVGYLTAFARRLHVYRDRQRDNDWTQEPYDAPFTLTGEQVCVVGLGTIGQGVADRTDALGMDVVGVRRSGDPAENVERVYTPDELDAAVADARFVVLCCPLTEETEGMVDAALLAQMRADSYLVNVARGPVVVEDALLNALDTGTIAGAALDAHWAEPLPDDHPLWNHESAIVTPHVAAATSRYHEDIAALVRENVERATRGESLRNRVAEGHHHHHH

>  <soluble on expression in E. coli>
not soluble

$$$$
>  <primarySequence>
LVCRGSNEPTYCLCHQVSYGEMIGCDNPDCPIEWFHFACVDLTTKPKGKWFCPRCVQEK

>  <soluble on expression in E. coli>
soluble

$$$$
